// data source = ChEMBL document CHEMBL3102750

- Test details: Plasma clearance in Sprague-Dawley rat at 1 mg/kg, iv
- Format: ADME, organism-based
- Parameters: dose 1 mg/kg, route intravenous
Quantity measured: clearance (mL/min/kg)

>>> df
                  compound_structure_string   unit_tag  observed
0  O=C(c1ccc(F)c(F)c1)N1CCN2C(=O)c3ccccc3[C@@]12c1ccc(Cl)cc1  mL/min/kg       2.5

* * *

- Measured target: UniProt:P08482
- Sequence (P08482 whole entry): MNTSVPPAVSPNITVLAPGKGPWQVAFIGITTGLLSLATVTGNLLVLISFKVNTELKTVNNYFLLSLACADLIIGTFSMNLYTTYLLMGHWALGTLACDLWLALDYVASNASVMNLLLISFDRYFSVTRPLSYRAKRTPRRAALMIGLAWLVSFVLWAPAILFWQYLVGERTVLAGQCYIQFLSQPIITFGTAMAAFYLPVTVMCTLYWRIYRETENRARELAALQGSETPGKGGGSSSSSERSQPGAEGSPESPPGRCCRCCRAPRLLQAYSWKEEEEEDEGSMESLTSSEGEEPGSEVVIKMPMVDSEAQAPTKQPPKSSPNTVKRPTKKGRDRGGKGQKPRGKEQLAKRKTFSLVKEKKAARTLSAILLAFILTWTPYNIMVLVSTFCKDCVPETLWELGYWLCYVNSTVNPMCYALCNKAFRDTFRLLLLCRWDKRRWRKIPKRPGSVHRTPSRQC
- Test details: Negative allosteric modulation of rat muscarinic acetylcholine receptor M1 expressed in CHO cells assessed as inhibition of acetylcholine-induced calcium mobilization incubated for 150 secs prior to acetylcholine induction by Fluo-4 AM staining-based fluorescence assay
pIC50: −log10 of the molar value.
Quantity measured: pIC50

>>> df
                                   compound  observed
0  O=C(c1ccc(F)c(F)c1)N1CCN2C(=O)c3ccccc3[C@@]12c1ccc(Cl)cc1    < 4.52
1  O=C(c1ccc(F)c(F)c1)N1CCN2C(=O)c3ccccc3C12c1ccccc1 (configuration not stated)    < 4.52
